- protocol-text: Inhibition of hemin crystallization at 0.25 to 10 mol equiv after 18 hrs by spectrophotometric analysis
- Assay type: physicochemical
readout-type: inhibition (INH)

Some compounds with recorded inhibition (INH):
CCCCCCCCCCCCOC[C@H]1O[C@H](OO)C[C@@H](OCCCCCCCCCCCC)[C@H]1OCCCCCCCCCCCC; Not Active
CCN(CC)CCCC(C)Nc1ccnc2cc(Cl)ccc12 (stereo unspecified) [CHLOROQUINE]; Active
CCCCCCCO[C@H]1C[C@@H](OO)OC[C@H]1OCCCCCCC; Active
CCCCCCCOC[C@H]1O[C@H](OO)C[C@@H](OCCCCCCC)[C@H]1OCCCCCCC; Not Active
CCCCCCCCCCCCCCCCCCOC[C@H]1O[C@H](OO)C[C@@H](OCCCCCCCCCCCCCCCCCC)[C@H]1OCCCCCCCCCCCCCCCCCC; Not Active

Could you now consider this next compound?
Suppose we examine the compound CCCCCCCCCCCCCCCCCC(=O)O[C@@H]1C[C@@H](OO)O[C@H]1[C@@H](O)CO ; what inhibition (INH) value has been reported?
Not Active
